Below, each entry is listed with its recorded TGI.
System: CAKI-1 renal
assay.procedure: NCI tumour cell line growth inhibition, 48 h

1) O=Cc1ccccc1B(O)O; > 100 µM
2) Nc1[nH]c(=S)c2c(N)n[nH]c2c1C(=O)Nc1ccccc1; > 100 µM
3) N#Cc1ccc(C(=O)/C=C/c2ccc(O)c(O)c2)cc1; 29.6 µM
4) COC(=O)CCC1CCC(c2cc(F)ccc2F)(S(=O)(=O)c2ccc(Cl)cc2)CC1 (stereo unspecified); > 100 µM
5) OC(CNCC1CCCO1)Cn1c2ccc(Cl)cc2c2cc(Cl)ccc21 (stereo unspecified); 3 µM
6) COc1ccc(C(=O)/C=C/c2ccc3c(c2)OCO3)c(OCc2ccccc2)c1; > 100 µM

Param item: `Oc1ccc(Cc2nccc3cc(O)c(O)cc23)cc1O` ; param system: CAKI-1 renal; output TGI: > 100 µM

Param item: C/C=C1/CCC2c3[nH]c4ccccc4c3CCN2C1 (stereo unspecified) ; param system: CAKI-1 renal; output TGI: > 100 µM

Param item: `O=C(NCCCCCCNC(=O)OCCSCCn1cc(C(=O)NC(=O)OCc2ccccc2)c(=O)[nH]c1=O)OCCSCCn1cc(C(=O)NC(=O)OCc2ccccc2)c(=O)[nH]c1=O` ; param system: CAKI-1 renal; output TGI: > 100 µM

Param item: `Cc1cc(Cc2cc(C)cc(C(C)(C)C)c2O)c(O)c(Cc2cc(C)cc(C(C)(C)C)c2O)c1` ; param system: CAKI-1 renal; output TGI: 13.5 µM

Param item: `Nc1ccc(CCSSCCc2ccc(N)cc2)cc1` ; param system: CAKI-1 renal; output TGI: > 85.2 µM

----------
Test system: MCF7 breast
assay.procedure: NCI tumour cell line growth inhibition, 48 h
Below, each entry is listed with its recorded TGI.
Field format: number, assumed µM, no unit text.

1. O=S(=O)(c1cccc2c(Cl)cccc12)N1CCCNCC1; 50.8
2. CN(C)CCCN1c2ccccc2C(C)(C)c2ccccc21; 28
3. N#CC1=C(N)Oc2c(sc3c(Br)cccc23)C1c1ccc(Br)cc1 (stereo unspecified); 12.4
4. FC(F)(F)c1ccc(C#Cc2ccccc2C#Cc2ccccc2)cc1; 89.8
5. CC1(C)C/C(=N/O)c2c(nc3ccc4ccccc4c3c2-c2ccc(Cl)cc2)C1; 24.1

The record that follows has no TGI shown yet.
Param item: `N#Cc1cc(-c2nc3c(F)cccc3s2)ccc1N` ; param system: MCF7 breast; output TGI: 4.06

----------
Tested on: HT29 colon
assay.procedure: NCI tumour cell line growth inhibition, 48 h; in the data active = GI50 below about 0.43 µM; inactive = the rest
Reply using exactly one outcome from class 1 = active, class 0 = inactive

1) O=P(CCCCP(=O)(c1ccccc1)c1ccccc1)(c1ccccc1)c1ccccc1.[Cl][Sn]([Cl])([c]1ccccc1)[c]1ccccc1; class 0
2) O=C(c1ccccc1)C(Br)C(Br)c1cccc([N+](=O)[O-])c1 (stereo not drawn); class 0
3) FC(F)(F)c1ccc(C#Cc2ccccc2C#Cc2ccccc2)cc1; class 0

Field: outcome | Entry: O=c1[nH]c(=O)c2cc(C3CC(O)C(CO)O3)ccc2[nH]1 (stereo not drawn) class 0

Field: outcome | Entry: `NC(N)=N/N=C/c1c(-c2cc([N+](=O)[O-])c(Cl)cc2Cl)nc2sccn12` class 0

Field: outcome | Entry: `CNCCNc1c2c(c(NCCNC)c3[nH]ccc13)C(=O)c1ccccc1C2=O` class 0

Field: outcome | Entry: COC(=O)C1CCCN1C(=O)[C@@H]1CCCN1C(=O)[C@H](Cc1c[nH]c2ccccc12)NC(=S)Nc1cc(C(F)(F)F)cc(C(F)(F)F)c1 (stereo partly drawn) class 0

----------
Below, each entry is listed with its recorded TGI.
System: SK-MEL-5 melanoma
assay.procedure: NCI tumour cell line growth inhibition, 48 h

Worked cases, TGI given:
1) O=C(O)CCC(NC(=O)c1ccccc1)C(=O)O (stereo unspecified); > 100 µM
2) CC1=C(C)C1[N+](=O)[O-]; > 100 µM
3) FC(F)(F)c1ccc(C#Cc2ccccc2C#Cc2ccccc2)cc1; > 100 µM
4) COc1ccc(OC2OC(COC(c3ccccc3)(c3ccc(OC)cc3)c3ccc(OC)cc3)C(O)C(O)C2O)cc1 (stereo unspecified); 16.1 µM
5) C/C=C1/CCC2c3[nH]c4ccccc4c3CCN2C1 (stereo unspecified); > 100 µM

The measured TGI associated with `O=C(Nc1ccc2[nH]c(=S)sc2c1)Nc1ccccc1F` reads 84.1 µM

The measured TGI associated with C[N+]1(Cc2ccc(Cl)c(Cl)c2)CCCC1C1CCCN(Cc2ccc(Cl)c(Cl)c2)C1 (stereo unspecified) reads > 100 µM

The measured TGI associated with `COc1ccc(C(=O)/C=C/c2ccc3c(c2)OCO3)c(OCc2ccccc2)c1` reads > 100 µM

The measured TGI associated with CN1C(=O)C(CC(=O)O)NC1=S (stereo unspecified) reads > 100 µM

The measured TGI associated with `COc1ccc(-n2cc(-c3cc(OC)c(OC)c(OC)c3)nc2SCc2ccccc2)cc1OC` reads > 100 µM

The measured TGI associated with O=S(Nc1ccccc1)c1ccc(Cl)c(Cl)c1 (stereo unspecified) reads 62.5 µM

----------
System: OVCAR-4 ovarian
assay.procedure: NCI tumour cell line growth inhibition, 48 h
property.name: TGI (µM)
Field format: number, assumed µM, no unit text.

Worked cases, TGI given:
1. COc1cc(NC(=O)CSc2nc3ccc(C)cc3c(=O)n2Cc2ccccc2)cc(OC)c1OC; 33.3
2. CC(C)c1c(O)ccc2c1CCC1C(C)(C)CCCC21C (stereo not given); 32.9
3. CC(C)COCC(CN(Cc1ccccc1)c1ccccc1)N1CCCC1 (stereo not given); 11
4. COc1cc(/C=N/NC(=O)c2cnn3c2NC(c2ccccc2)C3)ccc1Oc1ccccc1 (stereo not given); 3.78
5. O=C(O)C1C(C(=O)O)C23CC2(C(=O)O)C2(C(=O)O)CCC3=C3CCCC312 (stereo not given); 80.6

The record that follows has no TGI shown yet.
Param item: `Nc1ccc(S(=O)(=O)Nc2ccc(Nc3c4ccccc4nc4ccccc34)cc2)cc1` ; param system: OVCAR-4 ovarian; output TGI: 17.1

----------
System: MDA-MB-231 breast
assay.procedure: NCI tumour cell line growth inhibition, 48 h; in the data active = GI50 below about 0.43 µM; inactive = the rest
Reply using exactly one outcome from active, inactive

Would you please look over these solved cases?
1. O=C(Nc1ccc2[nH]c(=S)sc2c1)Nc1ccccc1F; inactive
2. COC(=O)C1=C(C(=O)OC)SC(=C(Cl)C(=S)Nc2ccccc2O)S1; inactive
3. COC(=O)CCC1CCC(c2cc(F)ccc2F)(S(=O)(=O)c2ccc(Cl)cc2)CC1 (centres undefined); inactive
4. OC(CNCC1CCCO1)Cn1c2ccc(Cl)cc2c2cc(Cl)ccc21 (centres undefined); inactive
5. Nc1nc(N)c2c(n1)NC(c1ccc(F)cc1)C1CCc3ccccc3C1=N2 (centres undefined); inactive
6. O=P(CCCCP(=O)(c1ccccc1)c1ccccc1)(c1ccccc1)c1ccccc1.[Cl][Sn]([Cl])([c]1ccccc1)[c]1ccccc1; inactive

Field: outcome | Entry: `COc1ccc(-n2cc(-c3cc(OC)c(OC)c(OC)c3)nc2SCc2ccccc2)cc1OC` inactive

Field: outcome | Entry: `CC[C@@]1(OC(=O)CN)C(=O)OCc2c1cc1n(c2=O)Cc2cc3c(N)cccc3nc2-1` inactive

Field: outcome | Entry: Cc1ccc2c(c1)C(C)Cc1c(Cl)ncnc1N2C (centres undefined) inactive

Field: outcome | Entry: `O=S(=O)(c1cccc2c(Cl)cccc12)N1CCCNCC1` inactive

Field: outcome | Entry: `COc1cc(-n2cc(-c3ccc(Cl)cc3)nc2SCc2cccc(C#N)c2)cc(OC)c1OC` inactive

Field: outcome | Entry: `COc1cccc(OCCCN)c1-c1cc(Nc2cnc(C#N)cn2)n[nH]1` inactive

Field: outcome | Entry: `O=C1C=CC[C@H](/C=C/c2ccccc2)O1` inactive

----------
Below, each entry is listed with its recorded TGI.
Test system: DU-145 prostate
assay.procedure: NCI tumour cell line growth inhibition, 48 h
Field format: number, assumed µM, no unit text.

Worked cases, TGI given:
1. C=C1C(=O)O[C@H]2[C@H]1CCC(/C=N/c1ncc(Br)cc1N)=C\CC[C@@]1(C)O[C@@H]21; 3.22
2. COc1ccc(NC(=O)COCCOCCNC[C@@H]2C(=O)O[C@H]3[C@H]2CC/C(COC(=O)OC/C2=C/CC[C@@]4(C)O[C@H]4[C@H]4OC(=O)[C@@H](CN(C)C)[C@@H]4CC2)=C\CC[C@@]2(C)O[C@@H]32)c(O)c1C(N)=O; 13.7

The record that follows has no TGI shown yet.
Param item: `COc1cc2c(cc1OCCCCCOc1ccc(-n3c(C)nc4ccccc4c3=O)cc1)N=C[C@@H]1CCCN1C2=O` ; param system: DU-145 prostate; output TGI: 3.74

----------
Test system: CAKI-1 renal
assay.procedure: NCI tumour cell line growth inhibition, 48 h
Below, each entry is listed with its recorded TGI.

1) Cc1cc(=O)[nH]c2cc3c(c4c(n3Cc3ccc(Cl)cc3Cl)CC(C)(C)CC4=O)c(O)c12; > 100 µM
2) CC(=O)N1C(NN(C)C)CCN1c1ccccc1 (stereo not given); > 10 µM
3) O=c1[nH]c(=O)c2cc(C3CC(O)C(CO)O3)ccc2[nH]1 (stereo not given); > 100 µM
4) Cc1cc2nc(N3C(=O)/C(=C/c4ccccc4S)N=C3c3ccccc3)sc2cc1C; > 100 µM

The record that follows has no TGI shown yet.
The measured TGI associated with CCCCCCCCCCCCCCCCOCC(CP(=O)([O-])OCC[n+]1ccccc1)OC (stereo not given) reads 22.2 µM
